System: 786-0 renal
protocol_details: NCI tumour cell line growth inhibition, 48 h
Kindly state TGI for each of the entries shown.

Known results for molecules:
INSERT INTO measurements (molecule, system_under_test, measured_endpoint, value_reported) VALUES
  ('Cc1nc2sccn2c1/C=C1/C(=O)Nc2ccccc21', '786-0 renal', 'TGI', '> 100 µM'),
  ('O=c1[nH]c(=O)n(C2CC(O)C(CO)O2)cc1I (stereo not drawn)', '786-0 renal', 'TGI', '> 100 µM'),
  ('CC1CC2C3CC(F)C4=CC(=O)C=CC4(C)C3(F)C(O)CC2(C)C1(O)C(=O)COC(=O)C(C)(C)C (stereo not drawn)', '786-0 renal', 'TGI', '> 100 µM'),
  ('CN(C)CCNc1ccc(C(=O)NCCCN(C)CCCNC(=O)c2ccc(NCCN(C)C)c3c(=O)c4ccccc4[nH]c23)c2[nH]c3ccccc3c(=O)c12', '786-0 renal', 'TGI', '1.66 µM');

Record TGI per entry; entries follow.
1. CC1[C@@H]2[C@@H](C=C3C4CCC5Cc6nc7c(nc6C[C@@]5(C)C4C[C@H](O)[C@]32CO)CC2CCC3C4=C[C@H]5O[C@@]6(O[C@@](C)(CO)C[C@@H]6O)C(C)[C@@]5(O)[C@]4(C)[C@@H](O)CC3[C@]2(C)C7)O[C@]12CCC(C)(C)O2 (stereo partly drawn)
2. Cc1ccccc1NC(=S)Nc1ccccn1
3. O=C1c2c(F)c(F)c(F)c(F)c2SC2=NCCN12
4. CCSc1nnc2c(-c3ccccc3)n[nH]c2n1
5. C/C=C/[C@@]1(OC(=O)c2ccccc2)C[C@@H]2CCCC[C@@H]21
6. C=CCC1OC(C)(C)Oc2ccc(OCOCCOC)cc21 (stereo not drawn)
7. COc1ccc(Cn2c(C)nc3c2C(=O)c2ccccc2C3=O)cc1
8. COC(=O)Cc1cc(OC)c(OC)cc1Br

[A]
["0.534 µM", "> 100 µM", "19.8 µM", "> 100 µM", "31.8 µM", "> 100 µM", "40 µM", "> 100 µM"]

Below are some molecules; for each one, tell me its TGI.
1. O=c1cc(CNC2CCCC2)[nH]c(=O)[nH]1
2. Cn1cc(-c2nonc2-c2c[nH]c3ccccc23)c2ccccc21
3. C=C(CNC(=O)Nc1ccc(-c2ccccc2)cc1)c1ccc(C(=O)Nc2ccccc2N)cc1
4. O=P([O-])(O)OP(=O)([O-])O.[NH-][C@H]1CCCC[C@@H]1[NH-].[OH-].[OH-].[Pt+4]
5. COc1cccc2c1C(=O)c1c(O)c3c(c(O)c1C2=O)CC(O)(C(C)=O)CC3OC1CC(N)C(O)C(C)O1 (stereo not drawn)

[A]
1: > 100 µM; 2: 7.94 µM; 3: > 100 µM; 4: 76.2 µM; 5: 0.0836 µg/mL

I have 4 molecules here; please give me TGI for each one.
1. COc1cccc2c1OC1c3ccccc3OCC1C2 (stereo not drawn)
2. OCC1OC(c2scc3c(=S)nc[nH]c23)C(O)C1O (stereo not drawn)
3. O=C(Nc1ccc(Cl)cc1Cl)c1ccc(NC2=C(Cl)C(=O)N(Cc3ccccc3)C2=O)cc1
4. Cc1cc(C)nc(NC(N)=NCCc2ccccc2)n1

[A]
1: > 100 µM; 2: > 100 µM; 3: > 100 µM; 4: > 100 µM

I would be grateful if you could provide TGI for each of the following entries.
1. O=C(c1ccccc1)c1ccc2c(c1)nc1n2C(c2c(Cl)cccc2Cl)SC1 (stereo not drawn)
2. COC(=O)[C@@H](NC(=O)NC(=O)NC(=O)CI)C(C)C
3. O=S(=O)(Oc1ccc2oc3ccccc3c2c1-c1c(OS(=O)(=O)C(F)(F)F)ccc2oc3ccccc3c12)C(F)(F)F
4. CC1=NN(C(=O)c2ccccc2O)C(=O)/C1=C/c1ccc([N+](=O)[O-])cc1
5. C1=C(c2ccccc2)CN(c2ccccc2)OC1

[A]
> 100 µM
23.5 µM
> 100 µM
> 100 µM
> 100 µM
